Test system: IGROV1 ovarian
assay-text: NCI tumour cell line growth inhibition, 48 h
measurement-type: TGI

Working through the 7 compounds below one at a time, give TGI for each.
1. Clc1ccc(/C=C/c2nc3ccccc3s2)cc1Cl
2. O=c1[nH][nH]c(=O)n1Cc1ccccc1Cn1c(=O)[nH][nH]c1=O
3. CCCCCCCCCCCOc1ccc(C(=O)C(=O)c2ccc(OCCCCCCCCCCC)c(OCCCCCCCCCCC)c2)cc1OCCCCCCCCCCC
4. FC(F)(F)c1cc(Cl)cnc1N/N=C(/c1ccccc1)c1ccccn1
5. c1ccc2cc(-c3cc(-c4cc(-c5ccc6ccccc6c5)on4)no3)ccc2c1
6. CC(C)/C(Cl)=N\OC(=O)Nc1ccc(S(N)(=O)=O)cc1
7. Cc1ccc(N=Nc2ccc(N(CCC#N)CCC#N)cc2C)c(Br)c1

Reply text:
> 100 µM
> 100 µM
> 100 µM
5.59 µM
> 100 µM
33.9 µM
> 100 µM

----------
System: PC-3 prostate
assay-text: NCI tumour cell line growth inhibition, 48 h
measurement-type: GI50

Reference set, count: 3
molecule: COC1=CC(=O)c2nc(-c3ccncc3)[nH]c2C1=O
target-desc: PC-3 prostate
recorded-value: > 100 µM
//
molecule: COc1ccc(-c2nc3sccn3c2/C(N)=N/C(=N)N)cc1OC
target-desc: PC-3 prostate
recorded-value: 34.3 µM
//
molecule: CCCCOC(=O)C1OC(O[C@H]2CCC3(C)C(CCC4(C)C3CC=C3C5CC(C)(C)CCC5(C(=O)O)CC[C@]34C)C2(C)C)C(OC2OC(CO)C(O)C(O)C2O)C(OC2OC(CO)C(O)C(O)C2O)C1O (some centres undefined)
target-desc: PC-3 prostate
recorded-value: 34.7 µM

// moving on: another record for GI50
Inquiry: Recorded GI50 for `Cn1cc(C2=C(c3cn(C)c4ncccc34)C(=O)NC2=O)c2ccccc21` , please?
Reply text: 8.27 µM

----------
Exercise: state measured TGI for each of the compounds provided.
Tested on: IGROV1 ovarian
assay-text: NCI tumour cell line growth inhibition, 48 h

compound: CCCN=C1CCN(Cc2ccccc2)c2ccccc2N1
measurement-type: TGI
recorded-value: 19.5 µM
//
compound: COc1cc(/C=N/NC(=O)c2ccc(C(F)(F)F)nc2Nc2ccc(Cl)cc2C)ccc1O
measurement-type: TGI
recorded-value: 7.02 µM
//
compound: CC1=C(C(=O)Nc2ccc(Cl)c(Cl)c2)C(c2cccc(Oc3ccccc3)c2)NC(=S)N1 (stereo not given)
measurement-type: TGI
recorded-value: 19 µM
//
compound: CCC1(O)CC2CC(=O)OC2C1O (stereo not given)
measurement-type: TGI
recorded-value: > 100 µM
//
compound: NC(=O)c1sc(-n2cnc3ccccc32)cc1OCc1ccccc1Br
measurement-type: TGI
recorded-value: > 25 µM

Value sought for every listed compound: TGI.
1. CSc1nc2c(c(=O)[nH]1)N=C1c3ccccc3C(=O)C1C(c1ccccc1)N2 (stereo not given)
2. Cc1cc(=O)[nH]c(NN2C(Cl)C(=O)C2c2ccccc2O)n1 (stereo not given)
3. O=C1c2ccccc2C2C1N2C(=O)C(F)(F)F (stereo not given)
4. COc1cc(Cc2cnc(/N=C3\C(=O)N(CN4CCN(c5c(F)cc6c(=O)c(C(=O)O)cn(C7CC7)c6c5OC)CC4C)c4ccc(F)cc43)nc2N)cc(OC)c1OC (stereo not given)
5. N.N.N.N.O=[N+]([O-])[O-].[Co+3].[N-]=[N+]=[N-].[N-]=[N+]=[N-]

Reply text:
["> 100 µM", "> 100 µM", "> 100 µM", "> 100 µM", "> 100 µM"]

----------
System: HCT-15 colon
assay-text: NCI tumour cell line growth inhibition, 48 h; in the data active = GI50 below about 0.43 µM; inactive = the rest
The reply should name one outcome from active, inactive

Inquiry: Hey, what did the test say about `Cc1ccc(C(=O)/C(=C/c2ccc([N+](=O)[O-])cc2)SCc2ccc(Cl)cc2)cc1` ?
Reply text: inactive

Inquiry: Now the same for `O=C1C(Cl)=C(Nc2cccc(Cl)c2)C(=O)N1Cc1ccc(Cl)cc1Cl`
Reply text: active

----------
System: MOLT-4 leukemia
assay-text: NCI tumour cell line growth inhibition, 48 h
measurement-type: TGI

The examples below pair each entry with its known result.
compound: CSc1nc2c(c(=O)[nH]1)N=C1c3ccccc3C(=O)C1C(c1ccccc1)N2 (stereo not given)
recorded-value: > 100 µM
//
compound: Cc1cn(C2CC(n3cc(Cn4cc(I)c(=O)[nH]c4=O)nn3)C(CO)O2)c(=O)[nH]c1=O (stereo not given)
recorded-value: > 100 µM
//
compound: O=C(Nc1ccc(C2=NCCN2)cc1)c1cncc(C(=O)Nc2ccc(C3=NCCN3)cc2)c1
recorded-value: > 100 µM
//
compound: CCOC(=O)Nn1c(C)nnc1-c1ccccc1
recorded-value: > 100 µM
//
compound: O=c1[nH][nH]c(=O)n1Cc1ccccc1Cn1c(=O)[nH][nH]c1=O
recorded-value: > 100 µM

Batch of 7 compounds: report TGI for each.
1. COc1cc(CNc2cnc3cc(N)cc(N)c3n2)cc(OC)c1
2. CC[C@@]1(O)C(=O)OCc2c1cc1n(c2=O)Cc2c-1nc1ccccc1c2/C=N\NC(=O)CN
3. CC(=O)Nc1ccc(-c2nnc(SCC(=O)Nc3ccc([N+](=O)[O-])cc3)o2)cc1
4. O=C(Cc1cccs1)N[C@@H]1C(=O)N2C(C(=O)OC(c3ccccc3)c3ccccc3)=C(CO)CS[C@H]12
5. COc1cc(Cc2cnc(/N=C3\C(=O)N(CN4CCN(c5c(F)cc6c(=O)c(C(=O)O)cn(C7CC7)c6c5OC)CC4C)c4ccc(F)cc43)nc2N)cc(OC)c1OC (stereo not given)
6. CNS(=O)(=O)NNS(=O)(=O)c1ccc2ccccc2c1
7. CCN(CC)CCC(=O)Nc1ccc2c(c1)C(=O)c1ccc(NC(=O)CCN(CC)CC)cc1C2=O

Reply text:
> 100 µM
0.368 µM
> 100 µM
> 100 µM
6.97 µM
> 100 µM
12.2 µM

----------
System: UO-31 renal
assay-text: NCI tumour cell line growth inhibition, 48 h; in the data active means GI50 below about 0.43 µM; inactive means the rest
Pick one: class 1 (active), class 0 (inactive)

molecule: O=C(Nc1ccccc1)NS(=O)(=O)c1ccc(-n2nc3c(c2-c2cccs2)Cc2ccccc2-3)cc1
group: class 0

Inquiry: What did this assay record as the result for `Cc1nc2ccccc2c(N)c1-c1cc(C)c2c(C)nc3ccccc3c2n1` ?
Reply text: class 0

Inquiry: What do you have for `COc1cc(-c2nn(-c3ccc(NC(=O)c4ccc(Cl)c(C(F)(F)F)c4)cc3)cc2-c2ccncc2)ccc1Cl` ?
Reply text: class 0

----------
Test system: COLO 205 colon
assay-text: NCI tumour cell line growth inhibition, 48 h
Assignment: determine reported TGI for the given molecules.
Answers are plain numbers, in µM.

Past entries and their recorded results:
molecule: Cc1ccc(C(=O)/C(=C/c2ccc([N+](=O)[O-])cc2)SCc2ccc(Cl)cc2)cc1
target-desc: COLO 205 colon
unit-string: µM
TGI: 20.7
--
molecule: CC1=CC2C(O1)C1C(=O)C=CC(=O)C1=CC2[N+](=O)[O-] (stereo unspecified)
target-desc: COLO 205 colon
unit-string: µM
TGI: 21.2

Next up:
Inquiry: What does the record list as TGI for `CC1(C)N=C(/C(Cl)=[N+](/[O-])C(=O)c2ccc(F)cc2)C(C)(C)N1O` ?
Reply text: 38.2

----------
Would you mind telling me the reported TGI of each entry?
Test system: SF-539 CNS
assay-text: NCI tumour cell line growth inhibition, 48 h

molecule: O=S1(=O)c2ccccc2NC(c2ccc3ccccc3c2)CC1c1ccccc1F (centres undefined)
target-desc: SF-539 CNS
recorded-value: > 100 µM
//
molecule: O=C(N/C(=C\c1ccc(/C=C(\NC(=O)c2ccccc2)c2nc3cc([N+](=O)[O-])ccc3[nH]2)cc1)c1nc2cc([N+](=O)[O-])ccc2[nH]1)c1ccccc1
target-desc: SF-539 CNS
recorded-value: > 100 µM
//
molecule: O=C(/C=C/c1ccccc1)NC1C=Nc2ccc(Cl)cc2NC1=O (centres undefined)
target-desc: SF-539 CNS
recorded-value: 88.2 µM
//
molecule: COc1ccccc1C12OC(=O)C1(C)Oc1ccccc1C2=O (centres undefined)
target-desc: SF-539 CNS
recorded-value: > 100 µM
//
molecule: O=c1[nH]cc(N=Cc2cc(Cl)cc(Cl)c2O)c(=O)[nH]1
target-desc: SF-539 CNS
recorded-value: 43.6 µM
//
molecule: O=c1[nH][nH]c(=O)n1Cc1ccccc1Cn1c(=O)[nH][nH]c1=O
target-desc: SF-539 CNS
recorded-value: > 100 µM
//
molecule: CC(=O)NC1=C(NCCC(C)C)C(=O)c2ccccc2C1=O
target-desc: SF-539 CNS
recorded-value: > 50 µM
//
molecule: Cc1cccc2c(=O)cc(-c3ccccc3)[nH]c12
target-desc: SF-539 CNS
recorded-value: 37.1 µM
//
molecule: CCOC(=O)[C@]1(OC(C)=O)C[C@H](OC(C)=O)[C@@H](C(F)COP(=O)(OCc2ccccc2)OCc2ccccc2)O1 (some centres undefined)
target-desc: SF-539 CNS
recorded-value: > 100 µM
//
molecule: OCc1ccc(N2CCC2c2ccc(F)cc2)cc1Cl (centres undefined)
target-desc: SF-539 CNS
recorded-value: > 71 µM

Record TGI for all entries; do not skip any.
1. C=C1C(=O)C23CC1CCC2C12CO[C@@H]4OCC(C)(CC[C@@H]1OC3=O)C42 (some centres undefined)
2. CCOC(=O)CN1C(=O)c2cccc3cc([N+](=O)[O-])cc(c23)C1=O
3. CNS(=O)(=O)NNS(=O)(=O)c1ccc2ccccc2c1
4. O=C(O)CCc1coc2ccc(O)cc12

Reply text:
1. 14.8 µM
2. 16 µM
3. > 100 µM
4. > 100 µM
